Just for reference, the EternaBench riboswitch data is where these values come from.

tested on: MS2 coat protein; test: apparent Kd, MS2 coat protein; higher = weaker binding; RNA-MaP array; details: ligand present: flavin mononucleotide; designed as: OFF switch for flavin mononucleotide
quantity-measured: apparent Kd (nM)

sequence-code | unit-info | experimental-value
UCGGCACAUGAGGAUCACCCAUGUAAGGAUAUACGAAGCUUGCAGUCGCUGUUAUUUGGUAGAAGGUACCCUCG | nM | 12.5
CACUGGUACGAGAAGGCACCUGAAGUUGAGAAGUGAGGAUAUCGAAAUAAACACAUGAGGAUCACCCAUGUGAUCCAAGGACGA | nM | 91.6
AUCACUGAGCGAGGAUAUUAUUUCAAAUCAACGACGAUCCUACACAUGAGGAUCACCCAUGUUAGUAAGAAGGCGCGCCAGAUG | nM | 93.5
GUACAUAUAGAGAAGGGUGAGUAUAUCAGCCUCACAGGAUAUCUGAUGAGUGACAUGAGGAUCACCCAUGUGGUUGUCGGUAGG | nM | 102
GAGAGGGCUUGAGGAUAUCUUCACUCCGACAUGAGGAUCACCCAUGUAUUCCGUUGAUCGUUGGGAGAGAAGGCAACUUUGUAA | nM | 54
UAGCCUCUUAGAGGAUAUUCAUAAGCACGCAAUGAAGAAGGCUAGGACAAGUGGGACAUGAGGAUCACCCAUGUGGGAAUAUGU | nM | 36.8
AUUUCUUCGGUCAGGAUAUCUAGUGUAACGCGGUCAGAGAAGGGACAUGAGGAUCACCCAUGUGUGACUCUCUG | nM | 5.9
UAGGGUCUGUCGCGACAUGAGGAUCACCCAUGUGCUUAGUCAAGAAGGGCGGACAUGCAAAACCCGCAGGAUAUUGUAUGCACU | nM | 59.5
UCAAUCACACAUGAGGAUCACCCAUGUGAUAAUCAUGACUCAAGAAGGCAUGUGCAACUUGUUAAUGAGGAUAUUGGAGUAAUG | nM | 22.3
AAGUAGGAAGGAUAUACAUGAGGAUCACCCAUGUAAGGCAUUUGGCUAUAAUCGUUAAGUAGAAGGUCCUGCCG | nM | 8.2
GUUAGCACUUAAGGAUAUUGGAAGCGCGUCGUCCAAGAAGGUAAGUUCUUCGUCGACAUGAGGAUCACCCAUGUCAUGCAUGGC | nM | 11.8
UUCGACAGCGUGAGGAUAUCUACAUCGGGUAGGUGAGAGAAGGCACAUGAGGAUCACCCAUGUUCUGAAGAGCA | nM | 19.9
CAUAUGUUAGGAUAUAAGUUUAGAUCAUGCGUGUUUAUGGCUUAGAAGGAACAUGAGGAUCACCCAUGUAACAG | nM | 22.3
CUAGGUCAAGGAUAUACAUGAGGAUCACCCAUGUAAGAACCUAGUAGGGUCGUCCGAGGUAGAAGGUGAGCAUU | nM | 19.6
CAACGACAUGAGGAUCACCCAUGUGAGGAUAUCUACUUGAUCAGGUAACUGCUUCCGAAGAGAAGGCACGGUGA | nM | 19.5
CGGGAACAUGAGGAUCACCCAUGUCAGGAUAUACGCGAUGGCAACAGUGAUUGUUUGUGUAGAAGGGACUUACG | nM | 30.2
CACACCGCAGUGAGGAUAUACCAACUGAACGUUGAGUAGAAGGCACAUGAGGAUCACCCAUGUCACUACUGACA | nM | 35.7
AUGUGAUAGGAGAAGGGCUGUCCAUGGACAUCACAGUACAUCCACAUGAGGAUCACCCAUGUUAAGCAGGAUAUCCUGUCGUGU | nM | 58.9
AACAUUAGAGGAUAUAUCAUCUUUCACAUGAGGAUCACCCAUGUUCCUCAGUGUUAGUGUAUAGAAGGCUAAGACA | nM | 26.9
CUCGCAAAUGGAGGAUAUGCCGAGAUCCCUAUCCUCAGGACCUCCACAUGAGGAUCACCCAUGUUGCAGAAGGCCAGUGUGAAG | nM | 12.2
GUGGCAGGUGUCAGCCACAUGAGGAUCACCCAUGUUACUGAUCAGGAUAUUCGUGUGCGUCGCCGGAAGAAGGGAUUUGGACAU | nM | 64.1
ACGGUAGUACAUGAGGAUCACCCAUGUGGUUUUCUAAGAGGAUAGGAUAUACGUCCAAGCGGCAGGUAGAAGGAUCGAGUUUGC | nM | 34
